Values were extracted from paper PMC6696049.

Target: ATX (Homo sapiens)
Test: Ex vivo human plasma assay (LPC to LPA, LC-MS/MS)
Conditions: 37 °C, 3 h
Experimental: First, 5 μL of each test compound solution (10 mM, 100% dimethyl sulfoxide) was diluted 100 times with 495 μL of methanol and then 3 μL of a diluted methanol solution (1% dimethyl sulfoxide) was added to a human or rat serum solution. […] Then, it was covered with a well cap (Thermo 276011, Thermo Fisher Scientific Solutions LLC, Seoul, Korea) and analyzed by LC-MS/MS (Agilent 1260).
Observed property: IC50 (nM)

>  <Compound>
NS(=O)(=O)Nc1ccc(NC(=O)c2ccc3c(c2)CN(C(=O)OCc2cc(Cl)cc(Cl)c2)C3)cc1 [Compound 3]

>  <Observed property>
IC50

>  <Reported value>
827

$$$$
